Recorded Kp for the following compounds
test: Oral dose pharmacokinetics; assay type: in vivo, Sprague–Dawley rats; settings: male, Sprague-Dawley, rat, brain/plasma, po, 2 mg/kg

| COMPOUND | Kp |
| --- | --- |
| C#Cc1ccc2c(c1)C(c1ccccn1)=NCc1c(-c3cnco3)ncn1-2.Cl [KRM-II-81·HCl] | 0.52 |
| C#Cc1ccc2c(c1)C(c1ccccn1)=NCc1c(-c3cnco3)ncn1-2 | 0.32 |

====

Recorded AUC(0-t) for the following compounds
assay: Oral dose pharmacokinetics; assay type: in vivo, Sprague–Dawley rats; settings: male, Sprague-Dawley, rat, plasma, po, 2 mg/kg

| COMPOUND | AUC(0-t) [µM·h] |
| --- | --- |
| C#Cc1ccc2c(c1)C(c1ccccn1)=NCc1c(-c3cnco3)ncn1-2.Cl [KRM-II-81·HCl] | 2.66 |
| C#Cc1ccc2c(c1)C(c1ccccn1)=NCc1c(-c3cnco3)ncn1-2 | 3.59 |

Taken from paper PMC9366947.
